Every entry's value here was drawn from ChEMBL document CHEMBL1156725.

molecular target: DNA-dependent protein kinase catalytic subunit (Homo sapiens, UniProt P78527); experiment: Inhibition of DNA-dependent protein kinase
Sequence (P78527 whole entry): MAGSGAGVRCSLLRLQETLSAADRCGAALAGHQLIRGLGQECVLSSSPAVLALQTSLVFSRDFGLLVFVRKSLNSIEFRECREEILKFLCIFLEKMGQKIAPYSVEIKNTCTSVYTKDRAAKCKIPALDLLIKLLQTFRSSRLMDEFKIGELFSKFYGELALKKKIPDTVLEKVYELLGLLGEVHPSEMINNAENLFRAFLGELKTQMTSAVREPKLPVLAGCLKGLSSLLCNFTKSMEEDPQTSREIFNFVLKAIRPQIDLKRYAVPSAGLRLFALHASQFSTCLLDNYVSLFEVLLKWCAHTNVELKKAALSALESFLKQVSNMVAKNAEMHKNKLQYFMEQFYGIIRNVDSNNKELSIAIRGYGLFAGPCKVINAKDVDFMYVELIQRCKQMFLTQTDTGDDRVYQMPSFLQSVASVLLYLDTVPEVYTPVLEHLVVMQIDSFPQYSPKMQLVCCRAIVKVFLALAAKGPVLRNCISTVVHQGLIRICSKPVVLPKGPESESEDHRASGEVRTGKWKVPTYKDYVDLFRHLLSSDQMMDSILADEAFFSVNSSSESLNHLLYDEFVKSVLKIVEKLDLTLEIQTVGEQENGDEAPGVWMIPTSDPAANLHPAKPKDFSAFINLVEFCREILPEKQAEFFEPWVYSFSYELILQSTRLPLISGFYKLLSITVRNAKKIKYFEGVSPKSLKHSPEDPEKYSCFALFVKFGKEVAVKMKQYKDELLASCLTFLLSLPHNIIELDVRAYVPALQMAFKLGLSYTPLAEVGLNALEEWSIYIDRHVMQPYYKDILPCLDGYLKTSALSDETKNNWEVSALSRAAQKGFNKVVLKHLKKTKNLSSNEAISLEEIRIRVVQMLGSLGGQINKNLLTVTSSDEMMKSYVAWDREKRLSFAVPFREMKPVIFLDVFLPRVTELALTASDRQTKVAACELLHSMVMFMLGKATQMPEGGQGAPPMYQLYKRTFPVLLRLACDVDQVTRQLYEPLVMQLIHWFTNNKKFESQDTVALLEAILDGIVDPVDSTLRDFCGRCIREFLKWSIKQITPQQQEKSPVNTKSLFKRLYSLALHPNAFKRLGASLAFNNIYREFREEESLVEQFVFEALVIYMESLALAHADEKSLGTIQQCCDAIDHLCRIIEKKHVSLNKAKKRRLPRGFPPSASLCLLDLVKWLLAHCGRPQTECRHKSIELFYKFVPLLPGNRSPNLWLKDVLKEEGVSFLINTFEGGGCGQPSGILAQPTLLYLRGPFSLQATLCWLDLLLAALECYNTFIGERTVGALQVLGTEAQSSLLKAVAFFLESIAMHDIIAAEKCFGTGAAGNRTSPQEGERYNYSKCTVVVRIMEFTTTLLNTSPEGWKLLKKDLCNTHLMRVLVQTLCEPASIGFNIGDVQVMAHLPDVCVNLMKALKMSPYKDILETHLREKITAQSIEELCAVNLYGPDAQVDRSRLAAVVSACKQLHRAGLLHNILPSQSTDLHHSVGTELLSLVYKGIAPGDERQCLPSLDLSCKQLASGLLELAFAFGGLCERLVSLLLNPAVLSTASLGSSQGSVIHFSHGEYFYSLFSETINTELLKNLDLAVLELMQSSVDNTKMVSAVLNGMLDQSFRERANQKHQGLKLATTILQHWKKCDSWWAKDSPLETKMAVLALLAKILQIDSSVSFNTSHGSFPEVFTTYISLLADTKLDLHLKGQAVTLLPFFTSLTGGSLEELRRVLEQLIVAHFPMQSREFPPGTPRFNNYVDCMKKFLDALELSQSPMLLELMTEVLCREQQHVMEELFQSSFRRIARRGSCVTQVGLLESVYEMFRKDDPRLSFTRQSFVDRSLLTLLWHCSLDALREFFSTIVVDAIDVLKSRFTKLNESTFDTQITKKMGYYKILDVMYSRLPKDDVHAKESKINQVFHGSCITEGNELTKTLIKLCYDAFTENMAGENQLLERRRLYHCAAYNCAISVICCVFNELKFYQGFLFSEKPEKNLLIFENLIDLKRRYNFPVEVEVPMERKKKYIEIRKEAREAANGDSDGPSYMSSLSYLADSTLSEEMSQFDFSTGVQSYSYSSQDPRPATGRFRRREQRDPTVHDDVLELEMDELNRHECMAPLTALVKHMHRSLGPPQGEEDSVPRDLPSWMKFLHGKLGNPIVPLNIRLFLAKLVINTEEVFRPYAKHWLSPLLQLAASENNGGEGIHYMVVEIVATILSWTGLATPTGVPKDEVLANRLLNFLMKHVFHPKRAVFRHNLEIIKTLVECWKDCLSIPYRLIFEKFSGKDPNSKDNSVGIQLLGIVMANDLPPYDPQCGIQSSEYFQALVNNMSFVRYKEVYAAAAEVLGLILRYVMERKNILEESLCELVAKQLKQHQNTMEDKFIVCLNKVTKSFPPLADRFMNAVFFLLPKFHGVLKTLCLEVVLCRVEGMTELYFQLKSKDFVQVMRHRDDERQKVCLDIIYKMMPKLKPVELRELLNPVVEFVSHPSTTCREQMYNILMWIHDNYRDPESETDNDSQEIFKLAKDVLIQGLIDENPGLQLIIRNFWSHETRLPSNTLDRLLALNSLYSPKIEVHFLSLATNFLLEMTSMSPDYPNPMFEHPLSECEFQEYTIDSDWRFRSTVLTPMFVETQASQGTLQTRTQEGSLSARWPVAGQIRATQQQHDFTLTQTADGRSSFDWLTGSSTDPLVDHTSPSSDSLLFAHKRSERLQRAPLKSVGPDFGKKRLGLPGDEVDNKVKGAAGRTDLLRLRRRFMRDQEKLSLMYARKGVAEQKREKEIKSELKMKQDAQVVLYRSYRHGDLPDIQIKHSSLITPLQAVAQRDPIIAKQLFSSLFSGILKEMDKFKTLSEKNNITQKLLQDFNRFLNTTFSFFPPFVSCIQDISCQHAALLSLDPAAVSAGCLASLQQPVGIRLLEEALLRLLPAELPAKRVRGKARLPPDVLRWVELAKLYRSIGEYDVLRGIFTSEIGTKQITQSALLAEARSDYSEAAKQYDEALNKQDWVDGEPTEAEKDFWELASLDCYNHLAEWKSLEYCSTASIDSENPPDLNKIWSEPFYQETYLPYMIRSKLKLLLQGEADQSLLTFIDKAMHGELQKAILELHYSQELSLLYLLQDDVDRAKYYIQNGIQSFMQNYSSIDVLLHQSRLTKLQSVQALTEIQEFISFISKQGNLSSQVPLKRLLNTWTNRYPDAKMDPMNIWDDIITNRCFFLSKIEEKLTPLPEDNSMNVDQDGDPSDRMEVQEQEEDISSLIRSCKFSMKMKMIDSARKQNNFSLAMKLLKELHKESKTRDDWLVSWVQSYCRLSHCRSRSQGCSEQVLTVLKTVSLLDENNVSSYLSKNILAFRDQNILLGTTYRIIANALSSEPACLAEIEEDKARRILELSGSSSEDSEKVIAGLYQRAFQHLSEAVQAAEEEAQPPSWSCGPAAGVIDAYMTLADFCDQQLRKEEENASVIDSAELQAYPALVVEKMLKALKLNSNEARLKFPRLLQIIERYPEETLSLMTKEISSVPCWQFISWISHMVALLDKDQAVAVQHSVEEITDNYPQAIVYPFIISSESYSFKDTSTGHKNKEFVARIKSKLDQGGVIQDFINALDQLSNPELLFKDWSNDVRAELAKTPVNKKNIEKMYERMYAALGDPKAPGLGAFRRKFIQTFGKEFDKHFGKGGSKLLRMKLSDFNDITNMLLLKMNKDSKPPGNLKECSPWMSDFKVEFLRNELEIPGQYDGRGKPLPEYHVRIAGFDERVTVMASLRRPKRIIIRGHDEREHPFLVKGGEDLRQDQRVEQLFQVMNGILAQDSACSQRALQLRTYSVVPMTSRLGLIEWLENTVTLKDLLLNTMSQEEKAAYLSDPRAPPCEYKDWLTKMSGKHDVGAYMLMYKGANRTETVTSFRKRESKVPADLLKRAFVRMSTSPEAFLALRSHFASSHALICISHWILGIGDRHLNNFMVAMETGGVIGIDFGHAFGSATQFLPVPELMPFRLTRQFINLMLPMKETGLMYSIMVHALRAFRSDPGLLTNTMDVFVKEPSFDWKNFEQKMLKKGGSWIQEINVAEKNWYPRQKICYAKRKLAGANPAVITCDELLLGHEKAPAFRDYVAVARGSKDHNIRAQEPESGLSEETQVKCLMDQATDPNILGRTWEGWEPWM
Collected pIC50 values appear next to each entry.
A value of pIC50 is the negative decimal logarithm of a concentration given in moles per litre.

These solved cases illustrate the format of a correct answer.
SMILES_REPR	TARGET_ENTITY	pIC50
O=c1cc(N2CCOCC2)oc2c(-c3cccc(-c4cc[nH]c4)c3)cccc12	DNA-dependent protein kinase catalytic subunit (Homo sapiens, UniProt P78527)	5.74
O=c1cc(N2CCOCC2)oc2c(-c3cccc(-c4ccccn4)c3)cccc12	DNA-dependent protein kinase catalytic subunit (Homo sapiens, UniProt P78527)	6.06
O=c1cc(N2CCOCC2)oc2c(-c3cccc(-c4ccoc4)c3)cccc12	DNA-dependent protein kinase catalytic subunit (Homo sapiens, UniProt P78527)	6.57
Cc1ccc(-c2cccc(-c3cccc4c(=O)cc(N5CCOCC5)oc34)c2)s1	DNA-dependent protein kinase catalytic subunit (Homo sapiens, UniProt P78527)	5.97

Moving on to another compound below.
Could you share what pIC50 was measured for O=c1cc(N2CCOCC2)oc2c(-c3cccc(-c4ccc(CO)cc4)c3)cccc12 , tested on DNA-dependent protein kinase catalytic subunit (Homo sapiens, UniProt P78527)?
6.00
